This section presents variants with their documented self-cleavage values.
B1: CPEB3 Ribozyme (parent)
chain: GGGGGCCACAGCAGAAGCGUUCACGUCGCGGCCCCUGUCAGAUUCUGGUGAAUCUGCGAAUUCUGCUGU

Variants of: B1
protocol_details: self-cleavage, relative activity (ratio to wild type); higher = more cleavage; co-transcriptional
measured_parameter: self-cleavage

>  <variant_code>
G3C G14C

>  <test_value>
0.0467

$$$$
>  <variant_code>
C34U A52C

>  <test_value>
0.958

$$$$
>  <variant_code>
A40C U67A

>  <test_value>
0.518

$$$$
>  <variant_code>
U20G G56C

>  <test_value>
0.104

$$$$
>  <variant_code>
G37U U69C

>  <test_value>
0.533

$$$$
>  <variant_code>
G4U A59U

>  <test_value>
0.193

$$$$
>  <variant_code>
G4C C39U

>  <test_value>
0.261

$$$$
>  <variant_code>
G25U A52G

>  <test_value>
0.146

$$$$
>  <variant_code>
U49G U62A

>  <test_value>
0.937

$$$$
>  <variant_code>
U49A G58U

>  <test_value>
0.972

$$$$
>  <variant_code>
G17U C18U

>  <test_value>
0.155

$$$$
>  <variant_code>
A23C C24G

>  <test_value>
0.414

$$$$
>  <variant_code>
U21C A42U

>  <test_value>
0.891

$$$$
>  <variant_code>
C33A G50A

>  <test_value>
0.938

$$$$
>  <variant_code>
U53G U55C

>  <test_value>
0.468

$$$$
>  <variant_code>
C22G U26G

>  <test_value>
0.163

$$$$
>  <variant_code>
U44A C57U

>  <test_value>
0.397

$$$$
